# assayProcedure: Solubility of the compound in pH 6.8 JP2 buffer
# Assay type: physicochemical
valueKind: solubility

## Input Give me measured solubility, please, for this compound: "Cc1ncc(C)n2nc(CC(=O)N3c4nc5ccccc5n4C[C@@H]3C)nc12"
## Output 100 µM
